# Test system: M. javanica
# experiment: Nematicidal activity of fatty acid methyl ester emulsions against root knot nematode J2 larvae (Example 6)
# Type: cell-based, Meloidogyne javanica
# stated_conditions: 0.1% emulsion; 48 hours incubation, counted about 24 hours after transfer to plates
reported_property: M. javanica (% not viable) (%)

{"compound": "CCCCC[C@H]1O[C@H]1C/C=C\\CCCCCCCC(=O)OC", "subject_of_test": "M. javanica", "result_value": 90}
{"compound": "CCCCCCCCC(=O)OC [Nonanoic (C9-methyl ester), pelargonic acid methyl ester, reference compound]", "subject_of_test": "M. javanica", "result_value": 100}
{"compound": "CCCCCCCC/C=C\\CCCCCCCC(=O)OC [Oleic Acid (C18-methyl ester), oleic acid methyl ester, reference compound]", "subject_of_test": "M. javanica", "result_value": 20}

src = patent US6903052B2
